- Target or system: T1, human PD-1 (amino acids 1-185) stably expressed on Jurkat cells (human, UniProt Q15116 21-185)
- T1 construct: extracellular domain and a portion of the transmembrane domain, on cells; also called hPD-1; Jurkat+hPD-1 cell line
- T1 sequence (Q15116 21-185 limits assumed, form in doubt): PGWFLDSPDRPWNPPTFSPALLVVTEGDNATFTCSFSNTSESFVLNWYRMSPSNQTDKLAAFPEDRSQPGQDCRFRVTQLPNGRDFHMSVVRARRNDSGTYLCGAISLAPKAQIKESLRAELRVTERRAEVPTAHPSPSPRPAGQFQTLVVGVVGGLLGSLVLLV
- Protocol text: flow cytometry, Jurkat+hPD-1
Here, each record is paired with measured EC50 data.
Readout name: EC50

Binder	Readout name	Observed measurement
OMC.1.D6-hIgG4 (antibody, V domains shown) VH: EVQLLESGGGLVQPGGSLRLSCAASGFTFSDYYMSWVRQAPGKGLEWVSAISSSGGTIFYADSVKGRFIISRDNSKNTLYLQMNSLRAEDTAVYYCAKHKWNDVYYDAMDVWGQGTTVTVSS VL: QSVLTQPPSASGTPGQRVTISCSGSNSNIGRNLVNWYQQLPGTAPKLLIYTVDQRPSGVPDRFSGSKSGTSASLAISGLASEDEADYYCAAWDSSLNSWVFGGGTKLTVLG	EC50	3 to 16 nM
OMC.2.C6-hIgG4 (antibody, V domains shown) VH: EVQLLESGGGLVQPGGSLRLSCTASGFTFSSYEMQWVRQAPGKGLEWVLGITSSSSHIFYADSVKGRFTVSRDNSKNTLYLQMNSLRAEDTAVYYCTKDLNSYYGLDVWGQGTTVTVSS VL: QSVMTQPPSASGTPGQRVTISCSGSTSNLGNNYVSWYQHLPGTAPKLLIYGNDQRPSGVPDRFSGSKSGTSASLAISGLQSDDEADYYCSSWDASLNVWVFGGGTKLTVLG	EC50	3 to 16 nM
A2-hIgG4 (antibody, V domains shown) VH: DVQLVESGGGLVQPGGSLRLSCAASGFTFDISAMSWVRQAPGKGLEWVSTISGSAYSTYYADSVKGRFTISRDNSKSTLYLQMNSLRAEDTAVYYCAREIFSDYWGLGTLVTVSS VL: QSVLTQPPSASGTPGQRVTISCSGSTSNIGRESVYWYQQLPGTAPKLLIYSNVQRPSGAPNRFSGSKSGTSASLAISGLQSEDEADYYCGTWDDSLNGWVFGGGTKLTVLG	EC50	3 to 16 nM
OMC.1.B6-hIgG4 (antibody, V domains shown) VH: EVQLLESGGGLVQPGGSLRLSCAASGFTFSSNYMSWVRQAPGKGLEWVSAISSSGGTIFYADSVKGRFTISRDNSKNTLYLQMNSLRAEDTAVYYCAKHKWNAVYYDGMDVWGQGTTVTVSS VL: QSVLTQPPSASGTPGQRVTISCSGSNSNIGRNLVNWYQQLPGTAPKLLIYTIDQRPSGVPDRFSGSKSGTSASLVISGLQSEDEADYYCAAWDGSLNAWVFGGGTKLTVLG	EC50	3 to 16 nM
